Measured TGI values are reported for all entries that follow.
# Test system: SK-MEL-28 melanoma
# TEST SUMMARY: NCI tumour cell line growth inhibition, 48 h
MEASURED QUANTITY: TGI

> print(dat)
                                    compound     result
 1  NC(CCOCCP(=O)(O)O)C(=O)O (stereo unspecified)   > 100 µM
 2  CN(C)c1ccc(/C=C(\NC(=O)c2ccccc2)C2=NC(CCC(=O)O)C(=O)O2)cc1 (stereo unspecified)    > 50 µM
 3  Cc1ccccc1NC(=O)c1sc2nc(C)c(C(=O)/C=C/c3ccccc3)cc2c1N    3.72 µM
 4  CC1=C(SCCC(=O)OC(C[Se]C2=C(C)C(=O)c3ccccc3C2=O)C(=O)NCCCCCC(=O)OCc2ccccc2)C(=O)c2ccccc2C1=O (stereo unspecified)    24.7 µM
 5  COC(=O)c1ccc(CN2C(=O)C(Cl)=C(Nc3cccc(Cl)c3C)C2=O)cc1   > 100 µM
 6  O=C(Nc1cccc([N+](=O)[O-])c1)c1n[nH]n(-c2cccc([N+](=O)[O-])c2)c1=O   > 100 µM
 7  COc1ccc2c(c1)nc(C(=O)c1ccco1)c(C(F)(F)F)[n+]2[O-]   > 100 µM
 8  COc1ccc(C2C(C#N)=C(S)N(C3OC(COC(C)=O)C(OC(C)=O)C(OC(C)=O)C3OC(C)=O)C(c3ccccc3)=C2C(C)=O)cc1 (stereo unspecified)   > 100 µM
 9               COc1ccc([C@@H]2CC(=O)N2)cc1   > 100 µM
10   CCC(C)Nc1ccc(N)cc1 (stereo unspecified)    18.9 µM
11          N/C(=N\N=C\c1ccc(C(F)(F)F)cc1)NO   > 100 µM
12  CCC(C)[C@H](NC(=O)Nc1cc(C(F)(F)F)cc(C(F)(F)F)c1)C(=O)N[C@@H](Cc1cn(C)cn1)C(=O)OC (stereo partly specified)     1.1 µM
13  Nc1nc([Se])c2ncn(C3OC(CO)C(O)C3O)c2n1 (stereo unspecified)   > 100 µM
14                NC(=O)c1ccccc1[N+](=O)[O-]   > 100 µM
15  N=c1c2c(=S)n(-c3ccccc3)c(=S)n(-c3ccccc3)c2nc(SCCN2CCCC2)n1-c1ccccc1  > 38.7 µM
16  CCCCCCCCCCCCCCC(O)C[N+](C)(CCO)CCO (stereo unspecified)    22.4 µM
17  C=CCN(CCNS(=O)(=O)c1ccc(C)cc1)S(=O)(=O)c1ccc(C)cc1   > 100 µM
18   O=C1C(c2ccc(Br)cc2)=[N+]([O-])c2ccccc21    35.2 µM
19  CC1=C(c2ccccc2)C(O)(c2ccccc2)C(C)C1=O (stereo unspecified)   > 100 µM
20  O=C(c1ccc(Cl)cc1)N(C(=S)N1CCN(c2ccccn2)CC1)C1CCCCC1   > 100 µM
21  NC(=O)c1cc([N+](=O)[O-])c(Cl)c([N+](=O)[O-])c1Cl    3.15 µM
